# systemUnderTest: NAD-dependent protein deacylase sirtuin-5, mitochondrial (Homo sapiens) (UniProt Q9NXA8)
# Sequence (Q9NXA8 whole entry, looked up): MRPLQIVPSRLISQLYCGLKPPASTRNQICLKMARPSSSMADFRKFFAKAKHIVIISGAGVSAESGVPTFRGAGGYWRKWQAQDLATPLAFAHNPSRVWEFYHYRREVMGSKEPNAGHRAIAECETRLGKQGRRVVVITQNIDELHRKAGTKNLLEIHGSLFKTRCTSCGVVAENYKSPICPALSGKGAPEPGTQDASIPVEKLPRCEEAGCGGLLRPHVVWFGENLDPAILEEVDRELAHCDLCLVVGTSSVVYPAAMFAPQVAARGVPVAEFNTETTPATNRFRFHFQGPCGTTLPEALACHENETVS
# testSummary: blockers of sirtuin-5 deacylase activity – biochemical, fluorescence imaging, single point, set 5, primary screen (AID 652115)
# conditionSummary: Purified SirT5, succinyl-peptide AMC, trypsin-coupled fluorescence; at 15 µM; stronger effect = higher value
Screen size: about 330,000 compounds; about 3,800 (1.2%) were called active. Many of the other results were omitted from the sample, so actives are more common in it than they were.
reportedMetric: inhibition (%)
Give a bare numeral; the unit % is implied.

Tell me reported inhibition for `COc1cccc(S(=O)(=O)N(C)C[C@H]2Oc3cc(C#CCN(C)C)ccc3S(=O)(=O)N([C@H](C)CO)C[C@H]2C)c1` , tested with NAD-dependent protein deacylase sirtuin-5, mitochondrial (Homo sapiens) (UniProt Q9NXA8).
2.32

Tell me reported inhibition for `CN1c2ccc(Br)cc2[C@@H]2[C@@H](CCN2C(=O)Cc2ccccc2)[C@@H]1CO` , tested with NAD-dependent protein deacylase sirtuin-5, mitochondrial (Homo sapiens) (UniProt Q9NXA8).
0.309

Tell me reported inhibition for `CNC(=O)C[C@@H]1CC[C@@H]2[C@H](COc3ccc(NC(=O)Nc4ccccc4)cc3C(=O)N2C)O1` , tested with NAD-dependent protein deacylase sirtuin-5, mitochondrial (Homo sapiens) (UniProt Q9NXA8).
5.7

Next:
Tell me reported inhibition for `Cc1ccc(-c2cnc3c(c2)C(=O)N([C@H](C)CO)C[C@H](C)[C@@H](CN(C)C(=O)c2cccc(F)c2)O3)cc1` , tested with NAD-dependent protein deacylase sirtuin-5, mitochondrial (Homo sapiens) (UniProt Q9NXA8).
-11.3

Tell me reported inhibition for `CN1C(=O)c2cc(NS(=O)(=O)c3ccc(Cl)cc3)ccc2OC[C@@H]2O[C@H](CC(=O)O)CC[C@@H]21` , tested with NAD-dependent protein deacylase sirtuin-5, mitochondrial (Homo sapiens) (UniProt Q9NXA8).
-0.474

Tell me reported inhibition for `Cc1ccc(-c2cnc3c(c2)C(=O)N([C@@H](C)CO)C[C@H](C)[C@H](CN(C)C(=O)c2cccnc2)O3)cc1` , tested with NAD-dependent protein deacylase sirtuin-5, mitochondrial (Homo sapiens) (UniProt Q9NXA8).
1.09

Tell me reported inhibition for `O=C(C[C@H]1CC[C@H](NS(=O)(=O)c2ccccc2)[C@H](CO)O1)NCc1ccncn1` , tested with NAD-dependent protein deacylase sirtuin-5, mitochondrial (Homo sapiens) (UniProt Q9NXA8).
6.51

Tell me reported inhibition for `Cc1noc(C)c1NC(=O)N[C@H]1C=C[C@@H](CC(=O)Nc2ccccc2)O[C@H]1CO` , tested with NAD-dependent protein deacylase sirtuin-5, mitochondrial (Homo sapiens) (UniProt Q9NXA8).
1.42

====

# systemUnderTest: NAD-dependent protein deacylase sirtuin-5, mitochondrial (Homo sapiens)
# testSummary: blockers of sirtuin-5 deacylase activity – biochemical, fluorescence imaging, single point, set 5, primary screen (AID 652115)
# conditionSummary: Purified SirT5, succinyl-peptide AMC, trypsin-coupled fluorescence; at 15 µM; stronger effect = higher value
Screen size: about 330,000 compounds; about 3,800 (1.2%) were called active. The sample holds actives, similar compounds and a random draw of the others, so the mix is not that of the screen.
reportedMetric: inhibition (%)
Give a bare numeral; the unit % is implied.

Solved cases below.
Name the recorded inhibition for CC1=C(C(=O)N(C)C)CC(CC(=O)NCCN2CCOCC2)C(=O)N1Cc1ccccc1 (stereo not drawn) .
-4.9

Name the recorded inhibition for CC1c2nc3ccccc3n2C(CC(=O)NCCCN2CCOCC2)C(=O)N1Cc1ccccc1 (stereo not drawn) .
112

Name the recorded inhibition for `Cc1cccc(OCCC(=O)Nc2ccccc2C(N)=O)c1` .
-1.74

Next:
Name the recorded inhibition for `C[C@H]1CN([C@@H](C)CO)S(=O)(=O)c2ccc(C#Cc3ccncc3)cc2O[C@@H]1CN(C)C(=O)Nc1ccc2c(c1)OCO2` .
4.3

Name the recorded inhibition for `C[C@H](CO)N1C[C@H](C)[C@@H](CN(C)S(=O)(=O)c2ccc(F)cc2)Oc2cc(C3=CCCC3)ccc2S1(=O)=O` .
-0.634

Name the recorded inhibition for `COc1cccc(S(=O)(=O)N(C)C[C@@H]2Oc3cc(C4=CCCCC4)ccc3S(=O)(=O)N([C@H](C)CO)C[C@H]2C)c1` .
37.3

Name the recorded inhibition for `C[C@@H]1CN([C@@H](C)CO)S(=O)(=O)c2ccc(/C=C/c3ccccc3)cc2O[C@@H]1CN(C)C(=O)Nc1cc(F)ccc1F` .
21.7

Name the recorded inhibition for `COc1ccc2c3c([nH]c2c1)[C@@H](CO)N(S(C)(=O)=O)CC31CN(CC2CC2)C1` .
1.2

Name the recorded inhibition for `CO[C@H]1CN(C)C(=O)c2cc(NC(=O)c3cnccn3)ccc2OC[C@@H](C)N(CC2CC2)C[C@@H]1C` .
0.994

Name the recorded inhibition for `Cc1cccc(OCC(=O)Nc2ccccc2F)c1` .
-2.03

Name the recorded inhibition for `C[C@@H]1CN([C@@H](C)CO)S(=O)(=O)c2ccc(/C=C/c3ccccc3)cc2O[C@H]1CN(C)Cc1cccnc1` .
5.97

Name the recorded inhibition for `C[C@@H]1CN([C@@H](C)CO)S(=O)(=O)c2ccc(/C=C/c3ccccc3)cc2O[C@H]1CN(C)C(=O)Nc1cc(F)ccc1F` .
-3.9

Name the recorded inhibition for `COc1cccc(OCC(=O)Nc2ccccc2C(N)=O)c1` .
29.5
